Every entry's value here was drawn from PubChem BioAssay (NCI).

- Test system: SR leukemia
- procedure.summary: NCI-60 one-dose screen, 48 h
- condition.set: 10 µM unless noted
This is part of a sample that, as a whole, favours compounds with a hit. Of some 83,000 tested, about 20% had one in any assay. Active and inactive are the calls of the source. How the source made its calls: active means growth percent below 10; inactive means the rest.
Outcome codes: true (1) for active, false (0) for inactive

molecule	group.label
Cc1c(Cc2ccccc2)c(=O)oc2c(C)c(OCC(=O)n3nc(C#N)cc3N)ccc12	false (0)
BrCCCOc1ccc(Oc2ccc(OCCCBr)cc2)cc1	false (0)
CCCCCCC(=O)C(C)C	false (0)
COC(=O)[C@H](Cc1cn(C)cn1)NC(=O)[C@@H](NC(=O)Nc1cc(C(F)(F)F)cc(C(F)(F)F)c1)C(C)(C)C	true (1)

---

- System: SK-MEL-2 melanoma
- procedure.summary: NCI-60 one-dose screen, 48 h (100 = growth as untreated, 0 = no growth, -100 = all killed)
- condition.set: 10 µM unless noted
Compounds without any hit were thinned out: in the full panel of roughly 83,000, 20% have a hit.
List of growth values.

compound	study.target	growth, %
COC(=O)/C=C1/CCCCC1(C)C(=O)OC (stereo not drawn)	SK-MEL-2 melanoma	108
CC1(c2ccc(Br)cc2)NC(=O)NC1=O (stereo not drawn)	SK-MEL-2 melanoma	122
CCCCCSc1ccc2nc(NC(=O)OCCC)sc2c1	SK-MEL-2 melanoma	51.7

---

- System: M14 melanoma
- procedure.summary: NCI-60 one-dose screen, 48 h (100 = growth as untreated, 0 = no growth, -100 = all killed)
- condition.set: 10 µM unless noted
This is part of a sample that, as a whole, favours compounds with a hit. Of some 83,000 tested, about 20% had one in any assay.

compound	study.target	growth (%)
CCCC(C)c1cc(Cc2cc(Cl)cc(Cl)c2O)c(O)c(Cc2cc(Cl)cc(Cl)c2O)c1 (stereo not drawn)	M14 melanoma	7.97
NCCCOc1cc2ccccc2cc1C(=O)Nc1ccc(Cl)cc1OC(=O)c1cc2ccccc2cc1OCCCN	M14 melanoma	-86.7
COc1ccc(OC)c(Cn2cc3c(c2-c2ccccc2)CCc2cnoc2-3)c1	M14 melanoma	50.7
CCOC(=O)C1C(=O)C(=O)N(C(C)C)C1C(=O)OCC (stereo not drawn)	M14 melanoma	111
COc1ccc(Cn2cc3c(c2-c2ccc(O)cc2)CCc2cnoc2-3)cc1	M14 melanoma	9.96
CC(C)(C)C(=O)OCOP(=O)(OCOC(=O)C(C)(C)C)C1CC(O)N(O)C1=O (stereo not drawn)	M14 melanoma	55.6
CC(CCN1CCN(CCC(C)CC(C)(C)C)C1CC(C)CC(C)(C)C)CC(C)(C)C (stereo not drawn)	M14 melanoma	100
COc1cc(-c2nn(-c3ccc(NC(=O)Nc4ccc(Cl)c(C(F)(F)F)c4)cc3)cc2-c2ccncc2)ccc1Cl	M14 melanoma	1.7
Cc1ccc(NC(=O)CCl)cc1Cl	M14 melanoma	104
CN1CCN(Cc2ccc(NC(=O)c3cncc(C#Cc4c(N)ncc5ccc(F)cc45)c3)cc2C(F)(F)F)CC1	M14 melanoma	-73.7
CSC1=Nc2c(c(C)c(-c3ccccc3)n2CCCCl)C2=NC(=O)CN12	M14 melanoma	30.8
COc1ccc2cc(C(C)C(=O)Nc3ccc(S(=O)(=O)Nc4cc(C)on4)cc3)ccc2c1 (stereo not drawn)	M14 melanoma	103
N#Cc1ccc(NC2c3ccccc3CC2O)cc1 (stereo not drawn)	M14 melanoma	106
O=Nc1c(-c2c(O)[nH]c3cc(Br)ccc23)[nH]c2ccccc12	M14 melanoma	31.1
CCN(CC)CCCNc1c2ccc(Cl)cc2nc2ccc(OC)cc12	M14 melanoma	-79
CCOC(=O)CCCCCCCCC(=O)OCC	M14 melanoma	114
CCCCCSc1ccc2nc(NC(=O)OCCC)sc2c1	M14 melanoma	23.1
O=S(=O)(O)c1ccc2c(c1)Sc1cc(S(=O)(=O)O)ccc1O2	M14 melanoma	107
COc1ccc(/C=N/c2cc(C(C)(C)C)nn2-c2ccccc2)cc1	M14 melanoma	115
COc1cccc(-c2cc(-c3cc4ccccc4oc3=O)nc(N)n2)c1	M14 melanoma	100
O=[N+]([O-])c1ccc(-c2ncc(-c3ccc(O)cc3O)[nH]2)cc1	M14 melanoma	135
CC[C@H](Nc1ncnc2nc[nH]c12)c1nc2cccc(NCc3ccc(C(=O)NO)o3)c2c(=O)n1-c1ccccc1	M14 melanoma	103
COC(=O)C(C(=O)OC)C(Br)C(Br)C(Br)c1ccccc1 (stereo not drawn)	M14 melanoma	104
c1ccc(-c2cn3ccnc3c(-c3ccc4ncn(C5CCCCC5)c4c3)n2)cc1	M14 melanoma	61.8
Cn1c2c(cc(S(=O)(=O)c3ccccc3)c1=O)CCc1c-2cnn1-c1ccc(Cl)cc1	M14 melanoma	64
COc1ccc2oc(=O)cc(CN3C(=O)S/C(=C\c4ccc(Cl)cc4)C3=O)c2c1	M14 melanoma	96.2
CCCC[N+](C)(N)CCCC	M14 melanoma	100
COc1ccc(/C=C(/C(=O)N2CCN(c3ccc(C)cc3)CC2)c2cc(OC)c(OC)c(OC)c2)cc1N	M14 melanoma	3.96
